experimentalSystem: T1, HLA-A2 / homologous peptide CD163 complex on T2 cells (human)
T1 construct: whole, on cells; also called T2 cells supplemented with homologous peptide CD163
methodSummary: flow cytometry on peptide-pulsed T2 cells, scFv 100 nM;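 note: scFv binding read as gMFI and normalized to the level of HLA/peptide complex displayed on T2 cells, with homologous 9-mer peptides used to probe specificity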
Note to self: use satisfied only for standardized gMFI readings below 0.5; a reading exactly at 0.5 still gets not satisfied.

## Input Hello, is standardized gMFI of the following binder strictly smaller than 0.5? NYA-1143 (scFv) scFv: GEVQLVESGGGVVQPGRSLTPSCSASGFSIRSYDIHWVRLAPGKGLEWVATISYDGSQKYFADSVKGRFTIFRDESENMVYLQMSGLRVEDTAVYHCARGSSGHYEAFDIWGQGTMVTVSSGGGGSGGGGSGGGGSQSVLTQPPSVSAAPGQKVTISCSGSSSNIGNWYVSWYQQLPGTAPKLLIYDNNKRPSGIPDRFSGSKSGTSATLGITGLQTGDEADYYCGTWDSSLSAPWVFGGGTKVTVLGAAAGAGGDYKDDDDKGAAAHHHHHH
## Output satisfied

## Input Report whether reported standardized gMFI is lower than 0.5 (strictly) for NYA-1154 (scFv) scFv: GEVQLVESGGGVVQPGRSLTPSCSASGFSIRSYDMHWVRQAPGKGLEWVATISYDGSQKYFADSVKGRFTIFRDESENMVYLQMSGLRVEDTAVYHCARGSSNHYEAFDIWGQGTMVTVSSGGGGSGGGGSGGGGSQSVLTQPPSVSAAPGQKVTISCSGSSSNIGNNYVSWYQRLPGTAPKLLIYDNNKRPSGIPDRFSGSKSGTSATLGITGLQTGDEADYYCGAWDSSLSAPWVFGGGTKVTVLGAAAGAGGDYKDDDDKGAAAHHHHHH
## Output not satisfied

## Input Regarding NYA-2061 (scFv, also called NYA-2061 tag adduct) scFv: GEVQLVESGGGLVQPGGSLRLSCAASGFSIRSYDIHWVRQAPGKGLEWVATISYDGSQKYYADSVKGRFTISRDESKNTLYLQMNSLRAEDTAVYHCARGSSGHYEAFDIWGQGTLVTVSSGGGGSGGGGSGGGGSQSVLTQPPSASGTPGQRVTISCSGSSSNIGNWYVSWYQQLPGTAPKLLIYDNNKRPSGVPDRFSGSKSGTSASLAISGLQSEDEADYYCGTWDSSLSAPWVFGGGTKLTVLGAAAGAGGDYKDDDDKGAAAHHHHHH , kindly confirm whether its standardized gMFI is beneath 0.5.
## Output satisfied

## Input Is 0.5 strictly greater than the binder's reported standardized gMFI? binder: NYA-2143 (scFv) scFv: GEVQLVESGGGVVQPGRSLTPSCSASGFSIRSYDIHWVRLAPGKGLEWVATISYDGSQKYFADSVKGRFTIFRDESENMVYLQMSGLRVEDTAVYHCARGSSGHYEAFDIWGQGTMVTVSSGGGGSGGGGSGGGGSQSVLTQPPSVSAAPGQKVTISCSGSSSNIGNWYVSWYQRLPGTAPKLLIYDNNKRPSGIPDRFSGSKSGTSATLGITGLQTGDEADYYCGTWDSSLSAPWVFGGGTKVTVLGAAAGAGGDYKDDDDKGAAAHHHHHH
## Output satisfied

## Input # TODO verify standardized gMFI < 0.5 strictly for this binder: NYA-2048 (scFv, also called NYA-2048 tag adduct) scFv: GQVQLVESGGGVVQPGRSLRLSCAASGFSIRSYDMHWVRQAPGKGLEWVATISYDGSQKYYADSVKGRFTISRDNSKNTLYLQMSSLRAEDTAVYHCARGSSGHYEAFDIWGQGTLVTVSSGGGGSGGGGSGGGGSQSVLTQPPSASGTPGQRVTISCSGSSSNIGNWYVSWYQQLPGTAPKLLIYDNNKRPSGVPDRFSGSKSGTSASLAISGLQSEDEADYYCGTWDSSLSAPWVFGGGTKLTVLGAAAGAGGDYKDDDDKGAAAHHHHHH
## Output not satisfied

## Input Threshold test, standardized gMFI < 0.5: NYA-2044 (scFv, also called NYA-2044 tag adduct) scFv: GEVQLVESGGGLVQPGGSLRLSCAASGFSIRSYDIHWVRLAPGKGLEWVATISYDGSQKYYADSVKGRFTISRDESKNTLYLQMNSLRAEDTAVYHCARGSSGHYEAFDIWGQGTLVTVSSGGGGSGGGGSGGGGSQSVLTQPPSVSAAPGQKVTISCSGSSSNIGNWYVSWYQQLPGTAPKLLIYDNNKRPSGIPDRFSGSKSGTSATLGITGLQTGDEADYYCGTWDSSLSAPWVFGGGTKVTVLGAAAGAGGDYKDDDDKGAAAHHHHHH
## Output satisfied

## Input Strictly below 0.5 in standardized gMFI? NYA-2060 (scFv, also called NYA-2060 tag adduct) scFv: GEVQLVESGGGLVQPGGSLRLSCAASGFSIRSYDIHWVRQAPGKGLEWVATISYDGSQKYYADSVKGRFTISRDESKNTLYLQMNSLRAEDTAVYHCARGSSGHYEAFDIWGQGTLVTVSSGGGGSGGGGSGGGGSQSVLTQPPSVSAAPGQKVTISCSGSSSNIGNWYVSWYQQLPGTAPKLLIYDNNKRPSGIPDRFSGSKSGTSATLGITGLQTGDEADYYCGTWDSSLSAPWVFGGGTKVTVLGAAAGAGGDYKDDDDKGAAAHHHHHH
## Output satisfied
